Entry source: the RNAGym collection of RNA variant scans (doi:10.7554/elife.80360)

B1: Twister Ribozyme (parent)
chain: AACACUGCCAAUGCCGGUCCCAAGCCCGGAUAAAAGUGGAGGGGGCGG

- Variants of: B1
- experimental details: self-cleavage, relative activity (ratio to wild type); higher = more cleavage; co-transcriptional
Reported self-cleavage values for the following variants.
endpoint: self-cleavage

> print(dat)
    mutation.string  quantitative.readout
 1        U12A G16A                  1.03
 2        A11U C15U                     1
 3        G17C G24C                0.0583
 4        C19G A23U                  0.11
 5         A4G C15U                 0.944
 6        C25G C46A                 0.148
 7        G45A C46U                 0.848
 8        C19A C20A                0.0769
 9        G13C G24A                0.0986
10        C25G A35U                 0.299
11        A23G A30G                 0.647
